Biological target: UniProtKB P62942
Experiment: FKBP competitive binding assay based on fluorescence polarization (FP)
Details: competitive FP binding, methods of Example 2.5; read-out: FKBP IC50
Mark Satisfied only when IC50 stays strictly below 0.03 µM. Values equal to the cut-off are Not satisfied.

COc1ccccc1COC1CC2CCC(C)C(O)(O2)C(=O)C(=O)N2CCCCC2C(=O)OC(C(C)CC2CCC(O)C(OC)C2)CC(=O)C(C)C=C(C)C(O)C(OC)C(=O)C(C)CC(C)C=CC=CC=C1C (single isomer, unassigned) [28-epi-7S-2′-methoxybenzyloxy]; Not satisfied

input: IC50 under 0.03 µM? Item: CO[C@@H]1C[C@H](C[C@@H](C)[C@@H]2CC(=O)[C@H](C)/C=C(\C)[C@H](O)[C@@H](OC)C(=O)[C@H](C)C[C@H](C)/C=C/C=C/C=C(\C)[C@H](NS(C)(=O)=O)C[C@@H]3CC[C@@H](C)[C@@](O)(O3)C(=O)C(=O)N3CCCC[C@H]3C(=O)O2)CC[C@H]1O [28-epi-7R-methanesulfonamide]
output: Satisfied

input: How about this compound: CO[C@@H]1C[C@H](C[C@@H](C)[C@@H]2CC(=O)[C@H](C)/C=C(\C)[C@H](O)[C@@H](OC)C(=O)[C@H](C)C[C@H](C)/C=C/C=C/C=C(\C)[C@@H](N(C)C(=O)OCc3ccccc3)C[C@@H]3CC[C@@H](C)[C@@](O)(O3)C(=O)C(=O)N3CCCC[C@H]3C(=O)O2)CC[C@H]1O [28-epi-7S-N-Me-benzylcarbamate]
output: Not satisfied

input: How about this compound: COC1CC(CC(C)C2CC(=O)C(C)C=C(C)C(O)C(OC)C(=O)C(C)CC(C)C=CC=CC=C(C)C(OCc3ccccc3)CC3CCC(C)C(O)(O3)C(=O)C(=O)N3CCCCC3C(=O)O2)CCC1O (single isomer, unassigned) [28-epi-7R-benzyloxy]
output: Satisfied

input: How about this compound: CCCS(=O)(=O)N(C)C1CC2CCC(C)C(O)(O2)C(=O)C(=O)N2CCCCC2C(=O)OC(C(C)CC2CCC(O)C(OC)C2)CC(=O)C(C)C=C(C)C(O)C(OC)C(=O)C(C)CC(C)C=CC=CC=C1C (single isomer, unassigned) [28-epi-7R-N-Me-propanesulfonamide]
output: Not satisfied

====

Target: FKBP (Homo sapiens)
Sequence (P62942 whole entry): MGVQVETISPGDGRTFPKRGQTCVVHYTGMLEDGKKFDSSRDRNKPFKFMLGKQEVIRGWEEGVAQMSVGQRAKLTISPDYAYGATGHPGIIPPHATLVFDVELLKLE
Experiment: FKBP competitive binding assay based on fluorescence polarization (FP)
Conditions: FKBP IC50 (nM), competitive FP binding, methods of Example 2.5
Mark Y only when IC50 stays strictly below 10 nM. Values equal to the cut-off are N.

Past entries and their recorded results:
C=CCO[C@H]1C[C@@H]2CC[C@@H](C)[C@@](O)(O2)C(=O)C(=O)N2CCCC[C@H]2C(=O)O[C@H]([C@H](C)C[C@@H]2CC[C@@H](O)[C@H](OC)C2)CC(=O)[C@H](C)/C=C(\C)[C@H](O)[C@@H](OC)C(=O)[C@H](C)C[C@H](C)/C=C/C=C/C=C/1C [28-epi-7S-allyloxy]; N
CCN([C@@H]1C[C@@H]2CC[C@@H](C)[C@@](O)(O2)C(=O)C(=O)N2CCCC[C@H]2C(=O)O[C@H]([C@H](C)C[C@@H]2CC[C@@H](O)[C@H](OC)C2)CC(=O)[C@H](C)/C=C(\C)[C@H](O)[C@@H](OC)C(=O)[C@H](C)C[C@H](C)/C=C/C=C/C=C/1C)S(C)(=O)=O [28-epi-7R-N-Et-methanesulfonamide]; N
CCOC(=O)N[C@@H]1C[C@@H]2CC[C@@H](C)[C@@](O)(O2)C(=O)C(=O)N2CCCC[C@H]2C(=O)O[C@H]([C@H](C)C[C@@H]2CC[C@@H](O)[C@H](OC)C2)CC(=O)[C@H](C)/C=C(\C)[C@H](O)[C@@H](OC)C(=O)[C@H](C)C[C@H](C)/C=C/C=C/C=C/1C [28-epi-7R-ethylcarbamate]; Y
CO[C@@H]1C[C@H](C[C@@H](C)[C@@H]2CC(=O)[C@H](C)/C=C(\C)[C@H](O)[C@@H](OC)C(=O)[C@H](C)C[C@H](C)/C=C/C=C/C=C(\C)[C@H](N(C)S(=O)(=O)c3ccc(C)cc3)C[C@@H]3CC[C@@H](C)[C@@](O)(O3)C(=O)C(=O)N3CCCC[C@H]3C(=O)O2)CC[C@H]1O [28-epi-7R-N-Me-p-toluenesulfonamide]; N
CO[C@@H]1C[C@H](C[C@@H](C)[C@@H]2CC(=O)[C@H](C)/C=C(\C)[C@H](O)[C@@H](OC)C(=O)[C@H](C)C[C@H](C)/C=C/C=C/C=C(\C)[C@H](Oc3ccccc3C)C[C@@H]3CC[C@@H](C)[C@@](O)(O3)C(=O)C(=O)N3CCCC[C@H]3C(=O)O2)CC[C@H]1O [28-epi-7R-2′-methylphenyloxy]; Y

input: IC50 under 10 nM? Item: C=CCO[C@@H]1C[C@@H]2CC[C@@H](C)[C@@](O)(O2)C(=O)C(=O)N2CCCC[C@H]2C(=O)O[C@H]([C@H](C)C[C@@H]2CC[C@@H](O)[C@H](OC)C2)CC(=O)[C@H](C)/C=C(\C)[C@H](O)[C@@H](OC)C(=O)[C@H](C)C[C@H](C)/C=C/C=C/C=C/1C [28-epi-7R-allyloxy]
output: N
